System: MCF7
PROCEDURE_TEXT: Antiproliferative activity against human MCF7 cells assessed as reduction in cell viability by Alamar blue assay
Assay type: functional, cell-based
MEASURE_NAME: pIC50
One number for each entry, as −log10 of the molar value.

Task: Please indicate pIC50 recorded for `CC(=O)N[C@H](C)[C@@H](O)[C@@H](C)[C@@H]1NC(=O)/C=C/C=C(C)\C=C\[C@]2(C)CCC=C[C@@H]2/C=C(C)/C=C/[C@H]1C`
Result: 6.35

###

Tested on: SF-295
PROCEDURE_TEXT: Antiproliferative activity against human SF295 cells assessed as reduction in cell viability by Alamar blue assay
Format: functional, cell-based
MEASURE_NAME: pIC50
One number for each entry, as −log10 of the molar value.

- SMILES: "CC(=O)N[C@H](C)[C@@H](O)[C@@H](C)[C@@H]1OC(=O)/C=C/C=C(C)\\C=C\\[C@]2(C)CCC=C[C@@H]2/C=C(C)/C=C/[C@H]1C"
  TEST_RESULT: 7.20

// next entry
Task: Please indicate pIC50 recorded for `CC(=O)N[C@H](C)[C@@H](O)[C@@H](C)[C@@H]1NC(=O)/C=C/C=C(C)\C=C\[C@]2(C)CCC=C[C@@H]2/C=C(C)/C=C/[C@H]1C`
Result: 6.14

Data provenance: ChEMBL document CHEMBL4428094
